Protein target, amino acids: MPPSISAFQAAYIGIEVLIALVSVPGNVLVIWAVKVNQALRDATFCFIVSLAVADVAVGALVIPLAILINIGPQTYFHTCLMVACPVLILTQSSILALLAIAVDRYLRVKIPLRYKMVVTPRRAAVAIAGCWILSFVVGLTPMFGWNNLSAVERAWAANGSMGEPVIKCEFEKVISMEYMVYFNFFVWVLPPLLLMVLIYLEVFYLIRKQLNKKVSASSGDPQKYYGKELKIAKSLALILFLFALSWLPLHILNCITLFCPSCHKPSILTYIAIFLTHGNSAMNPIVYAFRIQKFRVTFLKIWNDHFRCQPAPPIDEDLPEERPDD
pKi: −log10 of the molar value.
property: pKi

Find the recorded pKi belonging to "Nc1nc(-c2ccccc2)c2nnn(Cc3ccc(NS(=O)(=O)O)cc3)c2n1" and report it.
5.00 to 6.00

Find the recorded pKi belonging to "COc1ccccc1-c1nc(N)nc2c1nnn2Cc1ccc(NS(=O)(=O)O)cc1" and report it.
< 5.00

Find the recorded pKi belonging to "COc1cc(NS(=O)(=O)O)ccc1Cn1nnc2c(-c3ccco3)nc(N)nc21" and report it.
< 5.00

Find the recorded pKi belonging to "COc1ccccc1-c1nc(N)nc2c1nnn2Cc1ccc(NS(=O)(=O)O)c(C)c1" and report it.
< 5.00

Find the recorded pKi belonging to "Nc1nc(-c2cccs2)c2nnn(Cc3cccc(NS(=O)(=O)O)c3)c2n1" and report it.
5.00 to 6.00

Find the recorded pKi belonging to "COc1cc(Cn2nnc3c(-c4ccc(C)o4)nc(N)nc32)ccc1NS(=O)(=O)O" and report it.
6.00 to 7.00

Find the recorded pKi belonging to "Cc1ccc(-c2nc(N)nc3c2nnn3Cc2ccc(C)c(NS(=O)(=O)O)c2)o1" and report it.
6.00 to 7.00

----------
// pKi collected for human adenosine A2A receptors (Homo sapiens)
pKi: −log10 of the molar value.

Find the recorded pKi belonging to "Cc1cc(Cn2nnc3c(-c4cccs4)nc(N)nc32)ccc1NS(=O)(=O)O" and report it.
≥ 7.00

Find the recorded pKi belonging to "COc1cc(NS(=O)(=O)O)ccc1Cn1nnc2c(-c3ccco3)nc(N)nc21" and report it.
6.00 to 7.00

Find the recorded pKi belonging to "COc1ccccc1-c1nc(N)nc2c1nnn2Cc1cccc(NS(=O)(=O)O)c1" and report it.
5.00 to 6.00

Find the recorded pKi belonging to "COc1cc(NS(=O)(=O)O)ccc1Cn1nnc2c(-c3ccccc3OC)nc(N)nc21" and report it.
5.00 to 6.00

Find the recorded pKi belonging to "Cc1ccc(-c2nc(N)nc3c2nnn3Cc2cccc(NS(=O)(=O)O)c2)o1" and report it.
≥ 7.00

Find the recorded pKi belonging to "COc1cc(Cn2nnc3c(-c4ccccc4)nc(N)nc32)ccc1NS(=O)(=O)O" and report it.
6.00 to 7.00

Find the recorded pKi belonging to "Cc1cc(Cn2nnc3c(-c4ccco4)nc(N)nc32)ccc1NS(=O)(=O)O" and report it.
≥ 7.00

Find the recorded pKi belonging to "COc1cc(Cn2nnc3c(-c4ccc(C)o4)nc(N)nc32)ccc1NS(=O)(=O)O" and report it.
≥ 7.00

Find the recorded pKi belonging to "COc1cc(NS(=O)(=O)O)ccc1Cn1nnc2c(-c3cccs3)nc(N)nc21" and report it.
5.00 to 6.00

Find the recorded pKi belonging to "Nc1nc(-c2ccccc2)c2nnn(Cc3cccc(NS(=O)(=O)O)c3)c2n1" and report it.
≥ 7.00
